- Tested on: isolated mouse liver mitochondria, complex I
- experimental-protocol: Oxygen consumption through complex I
- test-conditions: inhibition of oxygen consumption, malate + glutamate + ADP; 2µM rotenone = 100%
measurement-label: O2 cons CI EC20 (µM)
Write it as a number; the unit µM goes unstated.

COC(=O)c1ccc(O)cc1 [Methyl paraben] : 94.8
CC(=O)Oc1ccc(C(c2ccc(OC(C)=O)cc2)c2ccccn2)cc1 [Bisacodyl] : 52.5
CCCOC(=O)c1ccc(O)cc1 [Propyl paraben] : 28.4

// O2 cons CI EC20 (isolated mouse liver mitochondria, complex I) for Nc1ccn([C@@H]2CS[C@H](CO)O2)c(=O)n1 [Lamivudine] = 317.4

// O2 cons CI EC20 (isolated mouse liver mitochondria, complex I) for CN(C)C(=N)N=C(N)N [Metformin] = 351.8

// O2 cons CI EC20 (isolated mouse liver mitochondria, complex I) for O=C(O)Cc1ccccc1Nc1c(Cl)cccc1Cl [Diclofenac] = 29.8

====

List of ΔΨm loss EC20 values.
- Test system: isolated mouse liver mitochondria
- experimental-protocol: Loss of mitochondrial transmembrane potential
- Format: biochemical
- test-conditions: 20% of maximal loss of ΔΨm (50µM mClCCP = 100%), 30-min incubation
Write it as a number; the unit µM goes unstated.

A selection of reference data follows.
NC(=O)N1c2ccccc2C=Cc2ccccc21 [Carbamazepine] : 66.9
CC(C)c1nc(CN(C)C(=O)N[C@H](C(=O)N[C@@H](Cc2ccccc2)C[C@H](O)[C@H](Cc2ccccc2)NC(=O)OCc2cncs2)C(C)C)cs1 : 24.8
Cc1c(C)c2c(c(C)c1O)CCC(C)(COc1ccc(CC3SC(=O)NC3=O)cc1)O2 (stereo not shown) : 3.4

For this compound ( O=C(O)Cc1ccccc1Nc1c(Cl)cccc1Cl ), measured ΔΨm loss EC20 is 137.9

For this compound ( CC(=O)N1CCN(c2ccc(OCC3COC(Cn4ccnc4)(c4ccc(Cl)cc4Cl)O3)cc2)CC1 (stereo not shown) ), measured ΔΨm loss EC20 is 243.0

====

List of O2 cons CI EC20 values.
- Tested on: isolated mouse liver mitochondria, complex I
- experimental-protocol: Oxygen consumption through complex I
- test-conditions: inhibition of oxygen consumption, malate + glutamate + ADP; 2µM rotenone = 100%
Write it as a number; the unit µM goes unstated.

A selection of reference data follows.
O=C(O)CCCc1ccc(N(CCCl)CCCl)cc1 [Chlorambucil] : 140.9
C1CCC(C(CC2CCCCN2)C2CCCCC2)CC1 (centres unmarked) [Perhexiline] : 87.7
CCCC(CCC)C(=O)O [Valproic acid] : 44.9
O=C(N/N=C/c1ccc([N+](=O)[O-])o1)c1ccc(O)cc1 [Nifuroxazide] : 3.7
O=P(O)(O)C(Cl)(Cl)P(=O)(O)O [Clodronate] : 227.2

Consider the additional compound presented here.
For this compound ( C[C@@H]1O[C@@H](OC[C@H]2O[C@@H](Oc3c(-c4ccc(OCCO)c(OCCO)c4)oc4cc(OCCO)cc(O)c4c3=O)[C@H](O)[C@@H](O)[C@@H]2O)[C@H](O)[C@H](O)[C@H]1O [Troxerutin] ), measured O2 cons CI EC20 is 170.5

====

- Tested on: isolated mouse liver mitochondria
- experimental-protocol: Loss of mitochondrial transmembrane potential
- Format: biochemical
- test-conditions: 20% of maximal loss of ΔΨm (50µM mClCCP = 100%), 30-min incubation
Hi! Just check whether ΔΨm loss EC20 is below 80 µM. Below gives yes (1), equal or above gives no (0).

The following compounds have reported results that may help.
CC1=C(CC(=O)O)c2cc(F)ccc2/C1=C\c1ccc([S+](C)[O-])cc1 (stereo not drawn) : no (0)
O=C(O)CCCC[C@@H]1SC[C@@H]2NC(=O)N[C@@H]21 : no (0)

Q) A record lists CC(C)(S)[C@@H](N)C(=O)O . Is its ΔΨm loss EC20 below 80 µM?
A) no (0)

Q) A record lists COc1cc(CNC(=O)CCCC/C=C/C(C)C)ccc1O . Is its ΔΨm loss EC20 below 80 µM?
A) no (0)

Q) A record lists COc1cc(/C=C/C(=O)CC(=O)/C=C/c2ccc(O)c(OC)c2)ccc1O . Is its ΔΨm loss EC20 below 80 µM?
A) no (0)

Q) A record lists C[C@](N)(Cc1ccc(O)c(O)c1)C(=O)O . Is its ΔΨm loss EC20 below 80 µM?
A) no (0)

Q) A record lists CCCc1cc(=O)[nH]c(=S)[nH]1 . Is its ΔΨm loss EC20 below 80 µM?
A) no (0)

Q) A record lists O=C(O)c1nn(Cc2ccc(Cl)cc2Cl)c2ccccc12 . Is its ΔΨm loss EC20 below 80 µM?
A) no (0)

Q) A record lists Cc1cc2c(C(C)C)c(O)c(O)c(C=O)c2c(O)c1-c1c(C)cc2c(C(C)C)c(O)c(O)c(C=O)c2c1O . Is its ΔΨm loss EC20 below 80 µM?
A) yes (1)

Q) A record lists CCCOC(=O)c1ccc(O)cc1 . Is its ΔΨm loss EC20 below 80 µM?
A) no (0)

Q) A record lists Clc1ccccc1CN1CCc2sccc2C1 . Is its ΔΨm loss EC20 below 80 µM?
A) yes (1)

Q) A record lists C#CCN(C)Cc1ccccc1 . Is its ΔΨm loss EC20 below 80 µM?
A) no (0)

====

- Tested on: isolated mouse liver mitochondria
- experimental-protocol: Loss of mitochondrial transmembrane potential
- Type: biochemical
- test-conditions: 20% of maximal loss of ΔΨm (50µM mClCCP = 100%), 30-min incubation
measurement-label: ΔΨm loss EC20

// ΔΨm loss EC20 (isolated mouse liver mitochondria) for O=C(/C=C/c1ccc(O)c(O)c1)c1ccc(O)cc1O [Butein] = > 200 µM

// ΔΨm loss EC20 (isolated mouse liver mitochondria) for CC1=NS(=O)(=O)c2cc(Cl)ccc2N1 [Diazoxide] = > 200 µM

// ΔΨm loss EC20 (isolated mouse liver mitochondria) for Oc1cc(O)cc(O)c1 [Phloroglucinol] = > 800 µM

====

- Tested on: isolated mouse liver mitochondria, complex I
- experimental-protocol: Oxygen consumption through complex I
- test-conditions: inhibition of oxygen consumption, malate + glutamate + ADP; 2µM rotenone = 100%
I would appreciate it if you labelled entries true (1) when O2 cons CI EC20 is 100 µM or higher, otherwise false (0).

The following molecules have reported results that may help.
C=CCN1CC[C@]23c4c5ccc(O)c4O[C@H]2C(=O)CC[C@@]3(O)[C@H]1C5 : true (1)
CC(=O)Nc1ccc(O)cc1 : true (1)
Nc1ccc(S(=O)(=O)c2ccc(N)cc2)cc1 : true (1)
NC12CC3CC(CC(C3)C1)C2 : true (1)
COc1cccc2c1C(=O)c1c(O)c3c(c(O)c1C2=O)C[C@@](O)(C(C)=O)C[C@@H]3O[C@H]1C[C@H](N)[C@H](O)[C@H](C)O1 : false (0)

Now let's try a different one.
Q) Can CN1C(C(=O)Nc2ccccn2)=C(O)c2ccccc2S1(=O)=O be said to have O2 cons CI EC20 at or above 100 µM?
A) false (0)

====

- System: isolated mouse liver mitochondria
- experimental-protocol: Loss of mitochondrial transmembrane potential
- Assay type: biochemical
- test-conditions: 20% of maximal loss of ΔΨm (50µM mClCCP = 100%), 30-min incubation
measurement-label: ΔΨm loss EC20 (µM)
Write it as a number; the unit µM goes unstated.

A selection of reference data follows.
Clc1ccccc1C(c1ccccc1)(c1ccccc1)n1ccnc1 [Clotrimazole] : 23.9
Oc1ccc(/C=C/c2cc(O)cc(O)c2)cc1 [Resveratrol] : 395.4
Clc1ccc(COC(Cn2ccnc2)c2ccc(Cl)cc2Cl)cc1 (centres unmarked) [Econazole] : 13.3
CC(C)(C)NC(=O)[C@@H]1C[C@@H]2CCCC[C@@H]2CN1C[C@@H](O)[C@H](Cc1ccccc1)NC(=O)[C@H](CC(N)=O)NC(=O)c1ccc2ccccc2n1 [Saquinavir] : 10.3
CCCCN1CCCCC1C(=O)Nc1c(C)cccc1C (centres unmarked) [Bupivacaine] : 258.2

// ΔΨm loss EC20 (isolated mouse liver mitochondria) for CCOC(=O)c1ccc(O)cc1 [Ethyl paraben] = 297.5

// ΔΨm loss EC20 (isolated mouse liver mitochondria) for CNC(C)C1CCC(N)C(OC2C(N)CC(N)C(OC3OCC(C)(O)C(NC)C3O)C2O)O1 (centres unmarked) [Gentamicin] = 49.0

// ΔΨm loss EC20 (isolated mouse liver mitochondria) for COc1cc2ncnc(Nc3ccc(F)c(Cl)c3)c2cc1OCCCN1CCOCC1 [Gefitinib] = 9.6

// ΔΨm loss EC20 (isolated mouse liver mitochondria) for CCCCC1C(=O)N(c2ccccc2)N(c2ccccc2)C1=O [Phenylbutazone] = 140.2

// ΔΨm loss EC20 (isolated mouse liver mitochondria) for CNS(=O)(=O)Cc1ccc2[nH]cc(CCN(C)C)c2c1 [Sumatriptan] = 248.3

// ΔΨm loss EC20 (isolated mouse liver mitochondria) for Cc1cn(-c2cc(NC(=O)c3ccc(C)c(Nc4nccc(-c5cccnc5)n4)c3)cc(C(F)(F)F)c2)cn1 [Nilotinib] = 11.5

// ΔΨm loss EC20 (isolated mouse liver mitochondria) for O=C1c2c(O)ccc(O)c2C(=O)c2c(NCCNCCO)ccc(NCCNCCO)c21 [Mitoxantrone] = 7.00

// ΔΨm loss EC20 (isolated mouse liver mitochondria) for CC(C)=CCC[C@]1(C)[C@@H](CC=C(C)C)C[C@@]2(CC=C(C)C)C(=O)[C@]1(C(=O)C(C)C)C(=O)C(CC=C(C)C)=C2O [Hyperforin] = 0.1

// ΔΨm loss EC20 (isolated mouse liver mitochondria) for Cc1cc(=O)n(-c2ccccc2)n1C [Antipyrine] = 300.0

// ΔΨm loss EC20 (isolated mouse liver mitochondria) for Cc1cccc(Nc2ccccc2C(=O)O)c1C [Mefenamic acid] = 49.7

// ΔΨm loss EC20 (isolated mouse liver mitochondria) for Cc1c(O)cccc1C(=O)N[C@@H](CSc1ccccc1)[C@H](O)CN1C[C@H]2CCCC[C@H]2C[C@H]1C(=O)NC(C)(C)C [Nelfinavir] = 6.3

// ΔΨm loss EC20 (isolated mouse liver mitochondria) for COc1ccc2c(c1)c(CC(=O)O)c(C)n2C(=O)c1ccc(Cl)cc1 [Indomethacin] = 443.2
